system: phospho(Ser63)-c-jun in HK-2 cells; assay: Cell-Based Assay for JNK Inhibitors (in-cell ELISA, phospho(Ser63)-c-jun after TNFα); conditions: HK-2 cells (human proximal tubule cells), 60 minutes compound, then 10 ng/mL TNFα for 30 minutes
Readout Kind: EC50 (µM)

Below are worked cases with known answers.
>  <Smiles Data>
COC(=O)c1c(CNC(=O)c2ccc3cc[nH]c3c2)c(=O)c2ccc(C(F)(F)F)nc2n1-c1ccccc1

>  <Units Label>
µM

>  <EC50>
10

$$$$
>  <Smiles Data>
COC(=O)c1c(CNC(=O)c2ccc(Cl)cc2)c(=O)c2ccc(Cl)cc2n1-c1ccccc1

>  <Units Label>
µM

>  <EC50>
9.2

$$$$

I. O=C(NCc1cn(-c2ccccc2)c2cc(Cl)ccc2c1=O)c1ccc(N(CCO)CCO)nc1
II. COC(=O)c1c(CNC(=O)c2ccc(Cl)cc2)c(=O)c2ccc(OC)cc2n1-c1ccccc1
Query :: # min-compare on EC50 between I and II Mark your selection by writing its label.
Result :: II

====

molecular target: JNK1 (Homo sapiens (Human), UniProt P45983); assay: In Vitro JNK1 Assay (TR-FRET, phosphorylation of GST-c-Jun); type: biochemical; details: 0.2 nM active JNK1 kinase, 26.7 nM GST-c-Jun, 2 μM ATP, 30 min at room temperature
Sequence (P45983 whole entry): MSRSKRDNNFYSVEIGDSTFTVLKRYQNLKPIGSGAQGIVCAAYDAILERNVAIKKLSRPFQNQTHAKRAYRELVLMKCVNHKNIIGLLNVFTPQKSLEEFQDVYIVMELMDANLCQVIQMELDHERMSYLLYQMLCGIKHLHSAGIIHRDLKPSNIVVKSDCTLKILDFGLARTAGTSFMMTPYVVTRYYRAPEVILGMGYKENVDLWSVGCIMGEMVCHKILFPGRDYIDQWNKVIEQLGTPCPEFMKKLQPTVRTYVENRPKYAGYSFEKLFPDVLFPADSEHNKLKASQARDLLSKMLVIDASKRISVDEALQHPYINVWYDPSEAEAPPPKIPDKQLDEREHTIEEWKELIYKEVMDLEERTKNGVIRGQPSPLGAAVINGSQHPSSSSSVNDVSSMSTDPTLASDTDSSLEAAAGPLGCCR
pIC50: −log10 of the molar value.
Readout Kind: pIC50

Reference set (5 entries):
>  <Compound>
COC(=O)c1c(CNC(=O)c2ccc3scnc3c2)c(=O)c2ccc(Cl)cc2n1-c1ccccc1

>  <Endpoint Value>
8.15

$$$$
>  <Compound>
COC(=O)c1c(CNC(=O)c2ccc(-c3cc[nH]n3)cc2)c(=O)c2ccc(Cl)cc2n1-c1ccccc1

>  <Endpoint Value>
7.82

$$$$
>  <Compound>
CS(=O)(=O)C1CCN(C(=O)N2CCC(NC(=O)NCc3cn(-c4ccccc4)c4cc(Cl)ccc4c3=O)CC2)CC1

>  <Endpoint Value>
5.80

$$$$
>  <Compound>
COc1ccc(C(=O)NCc2cn(-c3ccccc3)c3cc(Cl)ccc3c2=O)cn1

>  <Endpoint Value>
7.27

$$$$
>  <Compound>
O=C(NCc1c(-c2ncco2)n(-c2ccccc2)c2ncccc2c1=O)c1ccc(N2CCC(CO)CC2)nc1

>  <Endpoint Value>
8.15

$$$$

I. COC(=O)c1c(CNC(=O)c2ccccc2Cl)c(=O)c2ccc(Cl)cc2n1-c1ccccc1
II. NC(=O)N1CCN(c2ccc(C(=O)NCc3cn(-c4ccccc4)c4cc(Cl)ccc4c3=O)cn2)CC1
III. COC(=O)c1c(CNC(=O)c2cnn(C)c2)c(=O)c2ccc(Cl)cc2n1-c1ccccc1
IV. O=C(NCc1c(-c2ncco2)n(-c2ccccc2)c2ncccc2c1=O)c1ccn(Cc2ccccc2)c(=O)c1
V. O=C(NCc1cn(-c2ccccc2)c2cc(Cl)ccc2c1=O)c1ccc(N2CCS(=O)(=O)CC2)nc1
Query :: List the 5 entries from lowest pIC50 to highest pIC50 value. # respond with the labels, arranged in the requested order
Result :: I, V, II, III, IV
(I: 6.37, V: 7.25, II: 7.54, III: 7.82, IV: 8.40)

====

Biological target: UniProt:P45983
Test: In Vitro JNK1 Assay (TR-FRET, phosphorylation of GST-c-Jun)
Type: biochemical
Conditions: 0.2 nM active JNK1 kinase, 26.7 nM GST-c-Jun, 2 μM ATP, 30 min at room temperature
Method: Phosphorylation of GST-c-Jun protein (amino acid residues 1-79) was measured as JNK1 activity. […] The reaction buffer contained 50 mM HEPES, pH […], 1 mM DTT, 0.1 mM Na3VO4 and 0.2 mg/mL BSA. […] Time-resolved Fluorescence Resonance Energy Transfer (TR-FRET) signals were measured 1 hr. later on the EnVision reader (Perkin Elmer). Compound potency was assessed at 10 serially diluted concentrations. […]
pIC50: −log10 of the molar value.
Readout Kind: pIC50

Sample answers from the record:
>  <Molecule>
CN(C)C(=O)c1c(CNC(=O)c2ccn(Cc3ccccc3)c(=O)c2)c(=O)c2ccc(Cl)cc2n1-c1ccccc1

>  <Endpoint Value>
6.48

$$$$
>  <Molecule>
CN(C)C(=O)c1c(CNC(=O)c2ccc3c(c2)OCCO3)c(=O)c2ccc(Cl)cc2n1-c1ccccc1

>  <Endpoint Value>
6.34

$$$$
>  <Molecule>
COC(=O)[C@H]1CC[C@@H](NC(=O)NCc2cn(-c3ccccc3)c3cc(Cl)ccc3c2=O)CC1

>  <Endpoint Value>
5.96

$$$$
>  <Molecule>
COC(=O)c1c(CNC(=O)c2ccc(-c3ncc[nH]3)cc2)c(=O)c2ccc(Cl)cc2n1-c1ccccc1

>  <Endpoint Value>
8.15

$$$$
>  <Molecule>
O=C(NCc1cn(-c2ccccc2)c2cc(Cl)ccc2c1=O)c1ccc(N2CCOCC2)nc1

>  <Endpoint Value>
7.08

$$$$
>  <Molecule>
O=C(NCc1cn(-c2ccccc2)c2cc(Cl)ccc2c1=O)NC1CCN(S(=O)(=O)c2ccccc2)CC1

>  <Endpoint Value>
5.96

$$$$
>  <Molecule>
COC(=O)c1c(CNC(=O)c2ccc(S(C)(=O)=O)cc2)c(=O)c2ccc(Cl)cc2n1-c1ccccc1

>  <Endpoint Value>
8.40

$$$$
>  <Molecule>
COCCNc1ccc(C(=O)NCc2cn(-c3ccccc3)c3cc(Cl)ccc3c2=O)cn1

>  <Endpoint Value>
7.52

$$$$

I. O=c1c(CNc2cc(N3CCCCC3)ncn2)cn(-c2ccccc2)c2cc(Cl)ccc12
II. COC(=O)c1c(CNC(=O)c2ccc(-c3noc(C)n3)cc2)c(=O)c2ccc(Cl)cc2n1-c1ccccc1
Query :: Recorded pIC50 values differ for I and II ; which one is higher? Answer by stating the label of the chosen item.
Result :: II

Data credit: patent US8501732B2
